// data source = patent US20080221114A1

target: mitochondrial benzodiazepine receptor (MBR) (Rattus norvegicus, UniProt P16257)
For each record, check the reported IC50: if it is below 4 nM write yes, else write no.

>  <molecule>
C[C@@H]1C[C@H](C)CN(C(=O)[C@@H]2Cc3ccccc3N2c2ncccn2)C1 [Example 24]

>  <discrete_label>
yes

$$$$
>  <molecule>
C[C@@H]1CCCN(C(=O)[C@@H]2Cc3ccccc3N2c2cccnn2)C1 [Example 62]

>  <discrete_label>
no

$$$$
>  <molecule>
C[C@H]1CCCN(C(=O)[C@@H]2Cc3ccccc3N2c2ccc(=O)n(Cc3ccccc3)n2)C1 [Example 123]

>  <discrete_label>
yes

$$$$

Query: Please state whether IC50 is below 4 nM for C[C@H]1CCCN(C(=O)[C@@H]2Cc3cc(Br)ccc3N2c2cccnn2)C1 [Example 90]
Response: no
